- System: L1210 leukemia ip in BDF1 mice, survival T/C
- RUN_DESCRIPTION: NCI In Vivo Anticancer Drug Screen. Data for tumor model L1210 Leukemia (intraperitoneal) in B6D2F1 (BDF1) mice
- CONDITION_INFO: endpoint: mean survival time; dose: 200.0 mg/kg/injection; schedule: Q01DX009 (ip); vehicle: Klucel (hydroxypropylcellulose) (HPC); higher = longer survival
Toxic doses and inconclusive results are not listed. Square brackets hold non-standard residues; d marks the D form. Peptide text beside a SMILES is read from it. * marks the point of attachment. ξ: configuration not given here. Cbz = O=C(OCc1ccccc1)*; ξD = NC(CC(=O)O)C(=O)O
RESULT_TYPE: T/C

Some solved cases for reference:
NC1=NC(=O)C(c2ccccc2)O1 (stereo not drawn) | 102 % of control
CC(C)CC(C=NCC(CCN1CCOCC1)(CC(C)C)c1cccc2ccccc12)(CCN1CCOCC1)c1cccc2ccccc12 (stereo not drawn) | 90 % of control
N#CC1CC2([N+](=O)[O-])c3ccccc3C1c1ccccc12 (stereo not drawn) | 102 % of control
Cc1ccc(NC(=S)/C(=C(/[O-])c2ccc([N+](=O)[O-])cc2)[n+]2ccccc2)c(C)c1 | 97 % of control
c1ccc(N(c2ccccc2)c2ccccc2)cc1 | 91 % of control

Query :: Sample C#CCCCOC(=O)Nc1ccccc1 — what was its T/C?
Result :: 89 % of control

Query :: # iterate: O=C(O)CC(NC(=O)CNC(=O)OCc1ccccc1)C(=O)O (stereo not drawn) (Cbz-Gly-[ξD]-OH)
Result :: 95 % of control

Query :: # iterate: Cc1cc(OCCOC(=O)Nc2ccccc2F)ccc1Cl
Result :: 102 % of control

Query :: # iterate: Cc1cc2c(C)nc3ccccc3n2c1O
Result :: 98 % of control

Query :: # iterate: O=[N+]([O-])c1cccc(C=Nc2ccccc2F)c1
Result :: 98 % of control

Query :: # iterate: COc1ccc2ncc(C)c(CO)c2c1
Result :: 102 % of control

Query :: # iterate: c1ccc2c(C3OCC4(CCCCC4)CO3)cccc2c1
Result :: 97 % of control

Query :: # iterate: O=[N+]([O-])c1ccc(/C=C/c2ccccc2Cl)cc1
Result :: 97 % of control

Query :: # iterate: C[Si](C)(C)OSc1ccccc1[N+](=O)[O-]
Result :: 95 % of control

Query :: # iterate: COc1cc(/C=N\N=C\c2ccc(OC(=O)c3cc(OC)c(OC)c(OC)c3)c(OC)c2)ccc1OC(=O)c1cc(OC)c(OC)c(OC)c1
Result :: 95 % of control

Query :: # iterate: CC(C)c1cccc(C(C)C)c1OCCOC(=O)Nc1ccc(F)cc1
Result :: 117 % of control

Query :: # iterate: O=C(NC1CCCCC1)OCCOc1ccccc1
Result :: 103 % of control

Query :: # iterate: O=[N+]([O-])c1ccc(C(Cl)C2(Br)C=c3ccccc3=C2)cc1 (stereo not drawn)
Result :: 98 % of control

Query :: # iterate: S=C(Cc1ccccc1)N1CCCCC1
Result :: 98 % of control

====

- Tested on: L1210 leukemia ip in BDF1 mice, survival T/C
- RUN_DESCRIPTION: NCI In Vivo Anticancer Drug Screen. Data for tumor model L1210 Leukemia (intraperitoneal) in B6D2F1 (BDF1) mice
- CONDITION_INFO: endpoint: mean survival time; dose: 100.0 mg/kg/injection; schedule: Q04DX002 (ip); vehicle: saline
Inconclusive results and toxic doses are left out. Cut-off read from the data, not from the text of the source: active = T/C of 150% or more; inactive = T/C below 125%.
Answer with one of the outcomes true = active, false = inactive

As a guide, the following entries are already answered.
CC(C)(C)NC(=O)NCCCN1CCOCC1 | false
CSc1ccc(OCC2CO2)cc1C (stereo not drawn) | false
CC(=O)c1ccc2c3ccccc3n(CCCN3CCC(O)CC3)c2c1 | false
Cc1ccc(Cl)c(I)c1 | false
CCCC(C(N)=O)N(CCO)CCO (stereo not drawn) | false
C/C=C/C=C/COC(=O)CCCCCCC | false
CC12CCC(F)(CC1)CC2=O | false
O=C(CCCCCC(=O)NO)NO | false

Query :: Fill in: this test's call for Cc1c2oc3c(C)ccc(C(=O)OCCN4CCOCC4)c3nc-2c(C(=O)OCCN2CCOCC2)c(N)c1=O is ___
Result :: false

Query :: # iterate: CCSCCOc1c(C(C)(C)C)cc([N+](=O)[O-])c(C)c1[N+](=O)[O-]
Result :: false

Query :: # iterate: C[n+]1ccccc1Cl
Result :: false

Query :: # iterate: CCOC(=O)N(OCc1ccccc1)P(=O)(N1CC1(C)C)N1CC1(C)C (stereo not drawn)
Result :: true

Query :: # iterate: NCCSCC(N)C(=O)O (stereo not drawn)
Result :: false
